From: ChEMBL document CHEMBL1255309

System: Plasmodium falciparum
EXPERIMENT NOTES: Antimalarial activity against chloroquine-resistant Plasmodium falciparum K1
Format: functional, organism-based
OBSERVATION TYPE: log10 of IC50 (log10 of the value in nM)
Please keep in mind that the values are log10 of IC50 expressed in nM.

Example results:
C[C@@]1(c2ccccc2)OOC2(O1)C1CC3CC(C1)CC2C3 (stereo not given in full) :: 1.00
c1ccc([C@H]2CC[C@]3(CC2)OO[C@]2(O3)C3CC4CC(C3)CC2C4)cc1 :: 0.81
O=C(O)C[C@H]1CC[C@]2(CC1)OO[C@]1(O2)C2CC3CC(C2)CC1C3 :: 2.04
OC[C@H]1CC[C@]2(CC1)OO[C@]1(O2)C2CC3CC(C2)CC1C3 :: 0.45
C[C@H]1[C@H](OC(=O)CCC(=O)O)O[C@@H]2O[C@@]3(C)CC[C@H]4[C@H](C)CC[C@@H]1[C@@]24OO3 [ARTESUNATE] :: 0.51
CC(C)(C)[C@H]1CC[C@]2(CC1)OO[C@]1(O2)C2CC3CC(C2)CC1C3 :: 2.30
O=C1CCC2(CC1)OOC1(O2)C2CC3CC(C2)CC1C3 (stereo not given) :: 0.23
c1ccc([C@@H]2OOC3(O2)C2CC4CC(C2)CC3C4)cc1 (stereo not given in full) :: 3.18

According to the records, this compound "O=S(=O)(O)OC[C@H]1CC[C@]2(CC1)OO[C@]1(O2)C2CC3CC(C2)CC1C3" displays log10 of IC50 of 2.40

According to the records, this compound "CC1(C)CC[C@]2(CC1)OO[C@]1(O2)C2CC3CC(C2)CC1C3" displays log10 of IC50 of 0.90
